Tested on: Gram-positive bacteria
Assay: MIC, summary over Gram-positive strains
Type: cell-based
Settings: read-out: MICs against Gram-positive bacteria, three Gram-positive strains
Entries annotated with measured MIC
quantity_kind: MIC

# smi, result
data = [
    ("CC(C)=CCOc1cc(OCCNC(=N)N)cc2oc3cc(OCCNC(=N)N)ccc3c(=O)c12", "0.098 to 1.56 µg/mL"),
    ("CC(C)=CCOc1cc(OCCCCNC(=N)N)cc2oc3cc(OCCCCNC(=N)N)ccc3c(=O)c12", "0.098 to 1.56 µg/mL"),
    ("[H]/N=C(/N)NCCCOc1ccc2c(=O)c3c(OCC=C(C)CCC=C(C)C)cc(OCCCNC(=N)N)cc3oc2c1", "0.39 µg/mL"),
    ("CC(C)=CCOc1cc(OCCCCCCNC(=N)N)cc2oc3cc(OCCCCCCNC(=N)N)ccc3c(=O)c12", "0.098 to 1.56 µg/mL"),
    ("CC(C)=CCOc1cc(OCCCCCCCCNC(=N)N)cc2oc3cc(OCCCCCCCCNC(=N)N)ccc3c(=O)c12", "0.098 to 1.56 µg/mL"),
    ("COc1cc(OCCCNC(=N)N)cc2oc3cc(OCCCNC(=N)N)ccc3c(=O)c12", "6.25 to 12.5 µg/mL"),
]
